Target: KRAS G13C (Homo sapiens, UniProt P01116+P62937, G13C)
Sequence (P01116 1-169 isoform P01116-2 G13C): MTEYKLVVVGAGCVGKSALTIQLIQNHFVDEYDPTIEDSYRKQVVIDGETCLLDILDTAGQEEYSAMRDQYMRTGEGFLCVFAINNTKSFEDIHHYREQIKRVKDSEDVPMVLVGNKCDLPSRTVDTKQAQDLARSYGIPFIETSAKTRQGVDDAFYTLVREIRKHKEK
Sequence (P62937 whole entry): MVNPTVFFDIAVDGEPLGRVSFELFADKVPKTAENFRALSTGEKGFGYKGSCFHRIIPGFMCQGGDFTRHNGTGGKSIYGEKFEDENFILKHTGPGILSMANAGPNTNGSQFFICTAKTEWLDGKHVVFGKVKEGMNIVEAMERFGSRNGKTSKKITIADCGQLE
Assay: Disruption of BRAF RBD interaction with Ras (FRET / MOA assay, with Cyclophilin A)
Format: biochemical
Details: KRAS G13C; read-out: KRAS G13C FRET data IC50
Description: This protocol may also be executed substituting other Ras proteins or nucleotides. The purpose of this biochemical assay was to measure the ability of test compounds to facilitate ternary complex formation between a nucleotide-loaded K-Ras isoform and Cyclophilin A; the resulting ternary complex disrupts binding to a BRAF^RBD construct, inhibiting K-Ras signaling through a RAF effector. Data is reported as IC50 values. […]
pIC50: −log10 of the molar value.
Record form. Attribute: pIC50. Fill in for each entry.

Challenge: Entry CC#CC(=O)N1CC[C@H](C(=O)N(C)[C@H](C(=O)N[C@H]2Cc3nc(cs3)-c3ccc4c(c3)c(c(-c3cccnc3[C@H](C)OC)n4CC)CC(C)(C)COC(=O)[C@@H]3CCCN(N3)C2=O)C(C)C)C1 has what pIC50?
Response given: 5.00 to 6.00

Challenge: # input compound: CCn1c(-c2cccnc2[C@H](C)OC)c2c3cc(ccc31)-c1cc(sn1)C[C@H](NC(=O)[C@H](C(C)C)N(C)C(=O)[C@@H]1CCN(C(=O)C#CCN3CCOCC3)C1)C(=O)N1CCC[C@H](N1)C(=O)OCC(C)(C)C2 ; wanted: its pIC50
Response given: 5.00 to 6.00

Challenge: Return reported pIC50; argument: CCn1c(-c2cccnc2[C@H](C)OC)c2c3cc(ccc31)-c1csc(n1)C[C@H](NC(=O)[C@H](C(C)C)N(C)C(=O)[C@H]1CCN(C(=O)/C=C/CN(C)C)C1)C(=O)N1CCC[C@H](N1)C(=O)OCC(C)(C)C2
Response given: 5.00 to 6.00

Challenge: Look at this compound and give its reported pIC50. C=CC(=O)N1CC[C@H](C(=O)N(C)[C@H](C(=O)N[C@H]2Cc3cc(O)cc(c3)-c3ccc4c(c3)c(c(-c3ccc(CC(=O)O)cc3)n4CC)CC(C)(C)COC(=O)[C@@H]3CCCN(N3)C2=O)C(C)C)C1
Response given: < 5.00

Challenge: Given the entry C=CC(=O)N1CC[C@H](C(=O)N(C)[C@H](C(=O)N[C@H]2Cc3cc(O)cc(c3)-c3ccc4c(c3)c(c(C3=C(COC)CCCC3)n4CC)CC(C)(C)COC(=O)[C@@H]3CCCN(N3)C2=O)C(C)C)C1 , report its measured pIC50.
Response given: 5.00 to 6.00

Challenge: Consider the compound CCn1c(-c2cccnc2COC)c2c3cc(ccc31)-c1cc(O)cc(c1)C[C@H](NC(=O)[C@H](C(C)C)N(C)C(=O)[C@H]1CCN(C(=O)/C=C\CN(C)C)C1)C(=O)N1CCC[C@H](N1)C(=O)OCC(C)(C)C2 and give its measured pIC50.
Response given: 6.00 to 7.00

Challenge: # lookup: pIC50 of C=CC(=O)N1CCO[C@H]2CCN(C(=O)N(C)[C@H](C(=O)N[C@H]3Cc4nc(cs4)-c4ccc5c(c4)c(c(-c4cccnc4[C@H](C)OC)n5CC)CC(C)(C)COC(=O)C4CCCN(N4)C3=O)C(C)C)C[C@@H]21 (some centres unmarked)
Response given: 7.00 to 8.00

Challenge: Endpoint output: pIC50 of CCn1c(-c2cccnc2COC)c2c3cc(ccc31)-c1cc(O)cc(c1)C[C@H](NC(=O)[C@@H](C(C)C)N(C)C(=O)[C@H]1CCN(C(=O)C#CCN(C)C)C1)C(=O)N1CCC[C@H](N1)C(=O)OCC(C)(C)C2 . Value?
Response given: 5.00 to 6.00

Challenge: # input compound: C=CC(=O)N1CC[C@H](C(=O)N(C)[C@H](C(=O)N[C@H]2Cc3cc(O)cc(c3)-c3ccc4c(c3)c(c(-c3ccc(C5CCN(C)CC5)cc3)n4CC)CC(C)(C)COC(=O)[C@@H]3CCCN(N3)C2=O)C(C)C)C1 ; wanted: its pIC50
Response given: 5.00 to 6.00

Challenge: Please give the measured pIC50 for this compound: C=CC(=O)N1CC[C@H](C(=O)N(C)[C@H](C(=O)N[C@H]2Cc3cc(O)cc(c3)-c3ccc4c(c3)c(c(-c3cc(CN(C)C)cnc3COC)n4CC)CC(C)(C)COC(=O)[C@@H]3CCCN(N3)C2=O)C(C)C)C1
Response given: 6.00 to 7.00

Challenge: Which pIC50 is reported for this compound? C=CC(=O)N1CC[C@H](C(=O)N(C)[C@H](C(=O)N[C@H]2Cc3cc(O)cc(c3)-c3ccc4c(c3)c(c(-c3cncc(CCN(C)C)c3)n4CC)CC(C)(C)COC(=O)[C@@H]3CCCN(N3)C2=O)C(C)C)C1
Response given: 5.00 to 6.00

Challenge: Please look up its pIC50: C=CC(=O)N1CC(NC[C@H](C(=O)N[C@H]2Cc3cc(O)cc(c3)-c3ccc4c(c3)c(c(-c3cccnc3COC)n4CC)CC(C)(C)COC(=O)[C@@H]3CCCN(N3)C2=O)C(C)C)C1
Response given: 5.00 to 6.00

Challenge: I have this compound here, C=CC(=O)N1CC[C@H](C(=O)N(C)[C@H](C(=O)N[C@H]2Cc3cc(O)cc(c3)-c3ccc4c(c3)c(c(-c3cccnc3)n4C3CC3)CC(C)(C)COC(=O)[C@@H]3CCCN(N3)C2=O)C(C)C)C1 , and I need its recorded pIC50.
Response given: < 5.00

Challenge: Which pIC50 value belongs to CC#C[S+]([O-])N1CC[C@H](C(=O)N(C)[C@H](C(=O)N[C@H]2Cc3cccc(c3)-c3ccc4c(c3)c(c(-c3cccnc3[C@H](C)OC)n4CC)CC(C)(C)COC(=O)[C@@H]3CCCN(N3)C2=O)C2CCCC2)C1 (some centres unmarked) ?
Response given: 5.00 to 6.00

Challenge: # query: pIC50 of entry C=CC(=O)N1CCO[C@H]2CN(C(=O)N(C)[C@H](C(=O)N[C@H]3Cc4cccc(c4)-c4ccc5c(c4)c(c(-c4cccnc4[C@H](C)OC)n5CC)CC(C)(C)COC(=O)C4CCCN(N4)C3=O)C(C)C)C[C@H]21 (some centres unmarked)
Response given: 7.00 to 8.00

Challenge: I have this compound here, C=CC(=O)N1CCO[C@H]2CN(C(=O)N(C)[C@H](C(=O)N[C@H]3Cc4cccc(n4)-c4ccc5c(c4)c(c(-c4cccnc4[C@H](C)OC)n5CC(F)(F)F)CC(C)(C)COC(=O)C4CCCN(N4)C3=O)C(C)C)C[C@H]21 (some centres unmarked) , and I need its recorded pIC50.
Response given: 7.00 to 8.00

Challenge: What does the record list as pIC50 for C=CC(=O)N1CC[C@H](C(=O)N(C)[C@H](C(=O)N[C@H]2Cc3cc(O)cc(c3)-c3ccc4c(c3)c(c(-c3cnccc3C)n4CC)CC(C)(C)COC(=O)[C@@H]3CCCN(N3)C2=O)C(C)C)C1 ?
Response given: 6.00 to 7.00

* * *

Target: KRAS Q61H (Homo sapiens, UniProt P01116+P62937, Q61H)
Sequence (P01116 1-169 isoform P01116-2 Q61H limits assumed): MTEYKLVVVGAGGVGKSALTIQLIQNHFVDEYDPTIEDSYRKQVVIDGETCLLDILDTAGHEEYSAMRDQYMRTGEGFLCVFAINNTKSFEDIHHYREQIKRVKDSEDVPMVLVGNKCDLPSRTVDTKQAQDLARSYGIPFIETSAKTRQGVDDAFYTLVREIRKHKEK
Sequence (P62937 whole entry): as the sequence (P62937 whole entry) above
Test: Ras-Raf disruption / FRET / MOA assay (BRAF RBD)
Assay type: biochemical
Details: KRAS Q61H; read-out: KRAS Q61H FRET data IC50
Could you please report measured IC50 for the items listed next?

Challenge: API: value(readout=IC50, system=KRAS Q61H (Homo sapiens, UniProt P01116+P62937, Q61H)) for record CCn1c(-c2cccnc2[C@H](C)OC)c2c3cc(ccc31)-c1cc(O)cc(c1)C[C@H](NC(=O)[C@H](C(C)C)N(C)C(=O)[C@]1(F)CCN(C(=O)[C@H]3CN3)C1)C(=O)N1CCC[C@H](N1)C(=O)OCC(C)(C)C2 (atropisomer, axis not shown)
Response given: 10 to 100 nM

Challenge: Query the reported IC50 for KRAS Q61H (Homo sapiens, UniProt P01116+P62937, Q61H); item: CCn1c(-c2cccnc2[C@H](C)OC)c2c3cc(ccc31)-c1cc(O)cc(c1)C[C@H](NC(=O)[C@H](C(C)C)N(C)C(=O)[C@H]1C[C@@H]3N[C@@H]3C1)C(=O)N1CCC[C@H](N1)C(=O)OCC(C)(C)C2 (atropisomer, axis not shown)
Response given: 10 to 100 nM

* * *

Molecular target: KRAS G12S (Homo sapiens, UniProt P01116+P62937, G12S)
Sequence (P01116 1-169 isoform P01116-2 G12S limits assumed): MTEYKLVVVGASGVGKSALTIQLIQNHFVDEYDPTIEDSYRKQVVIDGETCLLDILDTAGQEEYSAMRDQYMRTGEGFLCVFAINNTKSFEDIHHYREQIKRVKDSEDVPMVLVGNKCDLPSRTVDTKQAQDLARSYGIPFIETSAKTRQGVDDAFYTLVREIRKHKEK
Sequence (P62937 whole entry): as the sequence (P62937 whole entry) above
Test: Disruption of BRAF RBD interaction with Ras (FRET / MOA assay, with Cyclophilin A)
Type: biochemical
Conditions: read-out: KRAS G12S FRET data, IC50
pIC50: −log10 of the molar value.
QUANTITY KIND: pIC50

Challenge: Which pIC50 value is on record for CCn1c(-c2cccnc2[C@H](C)OC)c2c3cc(ccc31)-c1csc(n1)C[C@H](NC(=O)[C@H](C(C)C)N(C)C(=O)N1CC(N(C)C(=O)C#CC(C)(C)N3CCC3)C1)C(=O)N1CCC[C@H](N1)C(=O)OCC(C)(C)C2 [Example A379] ?
Response given: 6.00 to 7.00

Challenge: For the compound shown here, CCn1c(-c2cnccc2COC)c2c3cc(ccc31)-c1cc(O)cc(c1)C[C@H](NC(=O)[C@H](C(C)C)N(C)CC(F)(F)F)C(=O)N1CCC[C@H](N1)C(=O)OCC(C)(C)C2 [Example A77] , give the reported pIC50.
Response given: < 5.00

Challenge: Query: pIC50; subject: CCn1c(-c2cccnc2[C@H](C)OC)c2c3cc(ccc31)-c1csc(n1)C[C@H](NC(=O)[C@H](C(C)C)N1CCN(C)C1=O)C(=O)N1CCC[C@H](N1)C(=O)OCC(C)(C)C2 [Example A389]
Response given: 5.00 to 6.00

Challenge: For C=CC(=O)N1CC[C@H](C(=O)N(C)[C@H](C(=O)N[C@H]2Cc3cc(OC(=O)CN)cc(c3)-c3ccc4c(c3)c(c(-c3ccccc3CCOC)n4CC)CC(C)(C)COC(=O)[C@@H]3CCCN(N3)C2=O)C(C)C)C1 [Example A008] , what is its reported pIC50?
Response given: 5.00 to 6.00

Challenge: Field request: pIC50 | item: CCn1c(-c2cccnc2[C@H](C)OC)c2c3cc(ccc31)-c1cc(O)cc(c1)C[C@H](NC(=O)[C@H](C(C)C)N(C)C(=O)[C@H]1C[C@@H]1C)C(=O)N1CCC[C@H](N1)C(=O)OCC(C)(C)C2 [Example A287]
Response given: 6.00 to 7.00

Challenge: Which value of pIC50 has been reported for CCn1c(-c2cncnc2)c2c3cc(ccc31)-c1cc(O)cc(c1)C[C@H](NC(=O)[C@H](C(C)C)N(C)C(=O)[C@H]1CCN(C(=O)C#CCN(C)C)C1)C(=O)N1CCC[C@H](N1)C(=O)OCC(C)(C)C2 [Example A108] in the records?
Response given: 5.00 to 6.00

Challenge: I'd like to know its pIC50. The compound in question is C=CS(=O)(=O)N1CC[C@H](C(=O)N(C)[C@H](C(=O)N[C@H]2Cc3nc(cs3)-c3ccc4c(c3)c(c(-c3cncnc3)n4CC)CC(C)(C)COC(=O)[C@@H]3CCCN(N3)C2=O)C(C)C)C1 [Example A170]
Response given: < 5.00

Challenge: For C=CC(=O)N1CC[C@H](C(=O)N(C)[C@H](C(=O)N[C@H]2Cc3cc(O)cc(c3)-c3ccc4c(c3)c(c(-c3ccnc5c3[C@@H](OC)CC5)n4CC)CC(C)(C)COC(=O)[C@@H]3CCCN(N3)C2=O)C(C)C)C1 [Example A275] , what is its reported pIC50?
Response given: 7.00 to 8.00

Challenge: What value of pIC50 has been recorded for this entry: C=CC(=O)N1CC[C@H](C(=O)N(C)[C@H](C(=O)N[C@H]2Cc3cc(O)cc(c3)-c3ccc4c(c3)c(c(-c3cccnc3CN(C)C)n4CC)CC(C)(C)COC(=O)[C@@H]3CCCN(N3)C2=O)C(C)C)C1 [Example A092]
Response given: 5.00 to 6.00
